The origin of these recorded values is ChEMBL document CHEMBL1157539.

tested on: HepG2; assay: GSK_TCMDC: Percent inhibition of human HepG2 cell line. Test compounds present at 10uM.; type: functional
Measure: Inhibition
Form field: result (number plus unit)

Reference set (3 entries):
{"Molecule": "O=C(O)C(F)(F)F.O=C1CCCN1CCCNCc1cccc(-c2ccc(-c3nc4ccccc4[nH]3)s2)c1", "Inhibition": "0%"}
{"Molecule": "CC1(C)NC(N)=NC(=N)N1OCc1nc(N)nc(Nc2ccccc2)n1", "Inhibition": "3%"}
{"Molecule": "Cc1cccc2nc(-c3cccc(-c4ccc(NC(=O)NC5CC5c5ccccc5)cc4)c3)[nH]c12 (stereo unspecified)", "Inhibition": "25%"}

Ask | Missing value: Inhibition, HepG2, entry O=C(/C=C/c1ccc(Cl)cc1)NCCCCCN1CCCN(C(=O)Nc2cccc(Cl)c2)CC1 . Fill in?
Reply | 19%

Ask | Can you handle CCNc1cc(C(=O)N[C@@H](Cc2ccccc2)[C@H](O)CNC2(C(C)C)CCC2)cc(N2CCCCS2(=O)=O)c1.Cl next?
Reply | 0%

Ask | Cc1c(F)cc(C(=O)NC2CC2)cc1-c1ccc2c(cnn2S(=O)(=O)c2cccs2)c1 , same question.
Reply | 32%

====

test system: HepG2; test: GSK_TCMDC: Percent inhibition of human HepG2 cell line. Test compounds present at 10uM.; assay type: functional
Measure: Inhibition (%)
Supply the numeric figure in %, leaving out any unit text.

Example results:
{"Compound": "CCN(CC)/C(=N/C(=N)NCc1cccc(Cl)c1)NCCCCCCN/C(=N\\C(=N)NCc1cccc(Cl)c1)N(CC)CC", "Target Of Assay": "HepG2", "Measure": "Inhibition", "Value Unit": "%", "Value Measured": 17}
{"Compound": "Cc1ccc(C(=O)NC2CCN(CCNC(=O)Nc3cc(C)nc4ccccc34)CC2)cc1", "Target Of Assay": "HepG2", "Measure": "Inhibition", "Value Unit": "%", "Value Measured": 0}
{"Compound": "O=[N+]([O-])c1ccc(C(O)P(=O)(c2ccccc2)c2ccccc2)cc1 (stereo unspecified)", "Target Of Assay": "HepG2", "Measure": "Inhibition", "Value Unit": "%", "Value Measured": 1}
{"Compound": "COc1ccc2nc(C)cc(N/N=C/C=C/c3ccccc3)c2c1", "Target Of Assay": "HepG2", "Measure": "Inhibition", "Value Unit": "%", "Value Measured": 27}
{"Compound": "COc1ccc(NS(=O)(=O)c2ccc(C(=O)Nc3ccc(C(F)(F)F)cc3)cc2)cc1N1CCN(CC2CC2)CC1.O=C(O)C(F)(F)F", "Target Of Assay": "HepG2", "Measure": "Inhibition", "Value Unit": "%", "Value Measured": 15}

Ask | Find the recorded Inhibition belonging to COc1ccc(Nc2nccc(NCCNC(=O)Nc3ccccc3F)n2)cc1 and report it.
Reply | 4

Ask | Do the same for Cc1cc(C(=O)Nc2ccc3c(ccn3C3CCCN(Cc4ccc(C(F)(F)F)cc4F)CC3)c2)no1 (stereo unspecified) please
Reply | 19

Ask | Can you handle O=C(Nc1ccc(Br)cc1)Nc1ccc(Cn2ncc(N3CCCNCC3)c(Cl)c2=O)cc1.O=C(O)C(F)(F)F next?
Reply | 0

====

tested on: Plasmodium falciparum; experiment: GSK_TCMDC: Inhibition of Plasmodium falciparum Dd2 in whole red blood cells, using parasite LDH activity as an index of growth. Test compounds present at 2uM; assay type: functional
Property: Inhibition; scope: individual molecules
The reply should contain only the number, in %.

{"Molecule": "Cc1cccc2nc(-c3ccc(-c4ccc(CN5CCCC(N)C5)cc4)cc3)[nH]c12.O=C(O)C(F)(F)F (centres undefined)", "Inhibition / %": 100}
{"Molecule": "O=C(NC1CCN(Cc2ccccc2)CC1)c1ccc(-c2nc3cc4ccccc4cc3[nH]2)s1", "Inhibition / %": 25}
{"Molecule": "Cl.N=c1n(CCN2CCCC2)c2ccccc2n1CC(O)c1ccc(Cl)c(Cl)c1 (centres undefined)", "Inhibition / %": 6}
{"Molecule": "Cc1nc2nc(N)nc(N)c2c(C)c1Cc1ccc(C(F)(F)F)cc1.Cl", "Inhibition / %": 22}
{"Molecule": "O=C(Cc1ccsc1)NCC(c1ccccc1Cl)c1c[nH]c2ccccc12 (centres undefined)", "Inhibition / %": 71}
{"Molecule": "N#Cc1ccc(-c2ccc(C(=O)NCCCCN3CCC(c4ccncc4)CC3)cc2)cc1", "Inhibition / %": 16}

Ask | What does the data say about its Inhibition? Entry: Cn1cncc1-c1ccc2c(-c3ccsc3)cnc(N)c2c1
Reply | 72

Ask | Thanks! And Cl.Oc1cccc(Nc2nc(NCC3CCCO3)c3ccccc3n2)c1 (centres undefined) ?
Reply | 87

Ask | How about this molecule: Cc1cc(=NN=Cc2ccc(F)cc2)c2ccc(C(F)(F)F)cc2[nH]1
Reply | 24

Ask | Follow-up entry: CN(CCN1CCC(c2c[nH]c3ccccc23)CC1)c1ccc(-c2nc3cc(Cl)c(Cl)cc3[nH]2)cc1
Reply | 100

Ask | And what about the molecule N[C@@H](COc1cccc2c(-c3ccncc3)c(-c3cccc(NC(=O)Nc4ccccc4)c3)nn12)c1ccccc1 ?
Reply | 71
